- assay notes: Acute toxicity (LD50)
- Set-up: species or system mice
- condition details: mouse, in vivo; death ratio observed for 14 days; Behrens-Korber's method
- Source text: (3) Acute toxicity (LD50): On each occasion, the test compound was given to the test animal.
quantity name: LD50 at 336 h (mg/kg)

1) CC1=C(NCCSSCCN)C(=O)C2=C(C1=O)N1CC3C(N3C)C1(O)C2COC(N)=O (stereo not drawn); 74.3
2) CCSSCCNC1=C(C)C(=O)C2=C(C1=O)C(COC(N)=O)C1(OC)C3NC3CN21 (stereo not drawn); 5.4

* * *

- assay notes: Acute toxicity (LD50)
- Design: species or system mice
- condition details: mouse, in vivo; death ratio observed for 14 days; Behrens-Korber's method
Values of LD50 at 336 h strictly less than 20 mg/kg map to Yes, and values of at least 20 mg/kg map to No.

1) COC12C(COC(N)=O)C3=C(C(=O)C(C)=C(NCCSSCCN)C3=O)N1CC1NC12 (stereo not shown); Yes
2) COC12C(COC(N)=O)C3=C(C(=O)C(C)=C(NCCSSCCNC4=C(C)C(=O)C5=C(C4=O)C(COC(N)=O)C4(OC)C6C(CN54)N6C)C3=O)N1CC1C2N1C (stereo not shown); No
3) CC1=C(NCCSSCCNC2=C(C)C(=O)C3=C(C2=O)C(COC(N)=O)C2(O)C4C(CN32)N4C)C(=O)C2=C(C1=O)N1CC3C(N3C)C1(O)C2COC(N)=O (stereo not shown); No
4) COC12C(COC(N)=O)C3=C(C(=O)C(C)=C(NC4CSSC4)C3=O)N1CC1NC12 (stereo not shown); Yes
5) COC12C(COC(N)=O)C3=C(C(=O)C(C)=C(NCCSSCC(O)CO)C3=O)N1CC1NC12 (stereo not shown); No
6) COC12C(COC(N)=O)C3=C(C(=O)C(C)=C(NCCSSCCNC4=C(C)C(=O)C5=C(C4=O)C(COC(N)=O)C4(OC)C6NC6CN54)C3=O)N1CC1NC12 (stereo not shown); Yes
7) CC1=C(NC2CSSC2)C(=O)C2=C(C1=O)N1CC3C(N3C)C1(O)C2COC(N)=O (stereo not shown); No
